Target: 5-hydroxytryptamine receptor 1A (Homo sapiens)
Assay: Maximal stimulation was expressed as percentage of the maximal 5-HT response in the [35S]GTP-gamma-S, binding assay on 5-hydroxytryptamine 1A receptor
Assay type: functional
Measured Metric: Emax (%)

[[record]]
compound = "COc1cccc2c(CCCN3CCN(c4ccccn4)CC3)cccc12"
measured_metric = "Emax"
assay_value = 86.3

[[record]]
compound = "COc1cccc2c(CCCNCCOc3ccccn3)cccc12"
measured_metric = "Emax"
assay_value = 48

[[record]]
compound = "COc1cccc2c1CCCC2CCCN1CCN(c2ccccn2)CC1 (configuration not stated)"
measured_metric = "Emax"
assay_value = 98.2

[[record]]
compound = "COc1cccc(C2CCC(N3CCN(c4ccccc4OC)CC3)CC2)c1 (stereo in doubt; trans)"
measured_metric = "Emax"
assay_value = 26.5

[[record]]
compound = "COc1cccc2c1CCCC2CCCNCCOc1ccccn1 (configuration not stated)"
measured_metric = "Emax"
assay_value = 86.8

[[record]]
compound = "COc1cccc(C2CCC(N3CCN(c4ccccn4)CC3)CC2)c1 (trans isomer)"
measured_metric = "Emax"
assay_value = 95.9

[[record]]
compound = "CCCN(CCC)C1CCc2cccc(O)c2C1 (configuration not stated)"
measured_metric = "Emax"
assay_value = 100


* * *

Molecular target: Adrenergic receptor alpha-1 (Rattus norvegicus, UniProt P15823+P23944+P43140)
Assay: Binding affinity towards alpha-1 adrenergic receptor in rat cortical membranes
Assay type: cell membranes
Below is a list of entries, each paired with its recorded Ki value.
Measured Metric: Ki

[[record]]
compound = "COc1cccc(C2CCC(NCCOc3ccccn3)CC2)c1 (stereo in doubt)"
study_system = "Adrenergic receptor alpha-1 (Rattus norvegicus, UniProt P15823+P23944+P43140)"
assay_value = "> 850 nM"

[[record]]
compound = "COc1cccc2c1CCC/C2=C\\CCNCCOc1ccccn1"
study_system = "Adrenergic receptor alpha-1 (Rattus norvegicus, UniProt P15823+P23944+P43140)"
assay_value = "> 850 nM"

[[record]]
compound = "COc1ccc2c(c1)CCC(CNCCOc1ccccn1)C2 (stereo not drawn)"
study_system = "Adrenergic receptor alpha-1 (Rattus norvegicus, UniProt P15823+P23944+P43140)"
assay_value = "> 850 nM"

